procedure details: amyloid nucleation score (Sup35N fusion, yeast selection) (log enrichment); library NNK3; higher = more nucleation; inactive = no reads after selection;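 further: zero at mode of non-aggregating sequences after 7 days selection at 30°C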
measurement type: amyloid nucleation score

Here is how some sequences turned out for amyloid nucleation score.
residues: WCLPNCPIVFNMHQLAHLSR
amyloid nucleation score: 0.021
--
residues: YGKFMLLPVAGGIFVFENML
amyloid nucleation score: 1.25
--
residues: YIWTMWSSSLCVLMGAKGAA
amyloid nucleation score: inactive
--
residues: YIFVSRIIGVPFRLVQVTSG
amyloid nucleation score: inactive
--
residues: PLSPFYAAWDYMILCVG
amyloid nucleation score: inactive
--
residues: CGISSILIAFCCNHYIVQWM
amyloid nucleation score: 1.92

Look up amyloid nucleation score for the entries below, preserving their order.
1. YSILYKSYYLRMHWVVASRL
2. NNLVPYLVWYCVTRNKTNGN
3. SSKCWSTSCFFKGKSLSSLG
4. TKMDETDLLMFAVLTGGLNG

1. inactive
2. inactive
3. inactive
4. inactive
